target under test: RARα (Homo sapiens, UniProt P10276)
Sequence (P10276 whole entry): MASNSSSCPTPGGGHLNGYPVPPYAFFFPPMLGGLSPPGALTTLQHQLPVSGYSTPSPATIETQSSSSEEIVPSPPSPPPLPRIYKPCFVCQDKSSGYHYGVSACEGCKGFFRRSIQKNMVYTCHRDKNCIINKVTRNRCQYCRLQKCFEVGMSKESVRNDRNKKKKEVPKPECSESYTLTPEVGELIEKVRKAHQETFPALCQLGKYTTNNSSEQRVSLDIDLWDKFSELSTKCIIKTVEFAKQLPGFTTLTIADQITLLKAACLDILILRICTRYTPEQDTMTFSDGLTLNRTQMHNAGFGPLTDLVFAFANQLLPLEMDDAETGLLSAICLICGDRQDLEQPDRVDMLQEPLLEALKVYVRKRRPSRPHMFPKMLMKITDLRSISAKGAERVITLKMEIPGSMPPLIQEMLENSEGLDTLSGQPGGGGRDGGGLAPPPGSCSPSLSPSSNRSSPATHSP
assay comment: Holoreceptor transactivation assay
Assay type: cell-based
Parameters: expressed in transfected cells; host or cells: CV1 cells
conditions: relative to all trans retinoic acid; read-out: Transactivation Assay Efficacy (% of RA activity) RARα
# Emax >= 2% gives Fulfilled, anything below gives Not fulfilled

{"smi": "CC1(C)CC=C(c2cccnc2)c2cc(C#Cc3ccc(C(=O)O)cc3)ccc21", "target under test": "RARα (Homo sapiens, UniProt P10276)", "assigned class": "Not fulfilled"}
{"smi": "COc1ccc(C2=CCC(C)(C)c3ccc(C#Cc4ccc(C(=O)O)cc4)cc32)cc1", "target under test": "RARα (Homo sapiens, UniProt P10276)", "assigned class": "Not fulfilled"}
{"smi": "CC1(C)CC=C(c2ccccn2)c2cc(C#Cc3ccc(C(=O)O)cc3)ccc21", "target under test": "RARα (Homo sapiens, UniProt P10276)", "assigned class": "Not fulfilled"}
{"smi": "Cc1ccc(C2=CCC(C)(C)c3ccc(C(=O)Nc4ccc(C(=O)O)c(F)c4)cc32)cc1", "target under test": "RARα (Homo sapiens, UniProt P10276)", "assigned class": "Fulfilled"}
{"smi": "Cc1ccc(C2=CCC(C)(C)c3ccc(C#Cc4ccc(C(=O)O)cc4)cc32)cc1", "target under test": "RARα (Homo sapiens, UniProt P10276)", "assigned class": "Not fulfilled"}
{"smi": "Cc1ccc(C2=CCC(C)(C)c3ccc(C#Cc4ccc(C(=O)O)cc4)cc32)cn1", "target under test": "RARα (Homo sapiens, UniProt P10276)", "assigned class": "Fulfilled"}
{"smi": "Cc1nc(C2=CCC(C)(C)c3ccc(C#Cc4ccc(C(=O)O)cc4)cc32)sc1C", "target under test": "RARα (Homo sapiens, UniProt P10276)", "assigned class": "Not fulfilled"}
{"smi": "Cc1ccc(C2=CCC(C)(C)c3cc(C(=O)C=Cc4ccc(C(=O)O)cc4)ccc32)cc1", "target under test": "RARα (Homo sapiens, UniProt P10276)", "assigned class": "Not fulfilled"}
{"smi": "Cc1csc(C2=CCC(C)(C)c3ccc(C#Cc4ccc(C(=O)O)cc4)cc32)n1", "target under test": "RARα (Homo sapiens, UniProt P10276)", "assigned class": "Fulfilled"}
{"smi": "Cc1ccc(C2=CCC(C)(C)c3ccc(C#Cc4ccc(C(=O)O)cc4)cc32)s1", "target under test": "RARα (Homo sapiens, UniProt P10276)", "assigned class": "Fulfilled"}
{"smi": "CC1(C)CC=C(c2ccc(O)cc2)c2cc(C#Cc3ccc(C(=O)O)cc3)ccc21", "target under test": "RARα (Homo sapiens, UniProt P10276)", "assigned class": "Not fulfilled"}
{"smi": "CC1(C)CC=C(c2ccccc2)c2ccc(C(=O)C=Cc3ccc(C(=O)O)cc3)cc21", "target under test": "RARα (Homo sapiens, UniProt P10276)", "assigned class": "Fulfilled"}

----------
Catalogue of Emax readings, one per entry.
target under test: RARβ (Homo sapiens, UniProt P10826)
Sequence (P10826 1-448 isoform P10826-2): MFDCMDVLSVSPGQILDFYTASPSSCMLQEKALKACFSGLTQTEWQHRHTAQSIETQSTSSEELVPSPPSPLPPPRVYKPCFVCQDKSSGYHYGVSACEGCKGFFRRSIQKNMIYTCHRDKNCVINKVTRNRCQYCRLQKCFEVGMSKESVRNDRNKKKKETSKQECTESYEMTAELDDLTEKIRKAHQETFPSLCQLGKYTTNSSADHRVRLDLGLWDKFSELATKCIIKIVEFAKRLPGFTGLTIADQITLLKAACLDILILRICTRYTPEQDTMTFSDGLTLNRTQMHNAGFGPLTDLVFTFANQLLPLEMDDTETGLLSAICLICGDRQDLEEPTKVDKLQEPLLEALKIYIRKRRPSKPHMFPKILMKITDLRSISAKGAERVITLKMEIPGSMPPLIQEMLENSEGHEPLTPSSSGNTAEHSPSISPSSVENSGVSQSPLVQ
assay comment: Holoreceptor transactivation assay
Format: cell-based
Set-up: expressed in transfected cells; host or cells: CV1 cells
conditions: relative to all trans retinoic acid; read-out: Transactivation Assay Efficacy (% of RA activity) RARβ

{"smi": "CC1(C)CC=C(c2ccccn2)c2cc(C#Cc3ccc(C(=O)O)cc3)ccc21", "target under test": "RARβ (Homo sapiens, UniProt P10826)", "Emax, %": 5}
{"smi": "Cc1ccccc1C1=CCC(C)(C)c2ccc(C#Cc3ccc(C(=O)O)cc3)cc21", "target under test": "RARβ (Homo sapiens, UniProt P10826)", "Emax, %": 14}
{"smi": "Cc1ccc(C2=CCC(C)(C)c3ccc(C(=O)Nc4ccc(C(=O)O)c(F)c4)cc32)cc1", "target under test": "RARβ (Homo sapiens, UniProt P10826)", "Emax, %": 5}

----------
target under test: RARα (Homo sapiens)
assay comment: Holoreceptor transactivation assay
Assay type: cell-based
Design: expressed in transfected cells; host or cells: CV1 cells
conditions: relative to all trans retinoic acid; read-out: Transactivation Assay Efficacy (% of RA activity) RARα
result type: Emax (%)

{"compound": "Cc1cnc(C2=CCC(C)(C)c3ccc(C#Cc4ccc(C(=O)O)cc4)cc32)s1 [Compound 30]", "result type": "Emax", "unit of measurement": "%", "data value": 3}
{"compound": "Cc1ccc(C2=CCC(C)(C)c3ccc(C(=O)Oc4ccc(C(=O)O)cc4)cc32)cc1 [Compound 39]", "result type": "Emax", "unit of measurement": "%", "data value": 1}
{"compound": "Cc1ccccc1C1=CCC(C)(C)c2ccc(C#Cc3ccc(C(=O)O)cc3)cc21 [Compound 27]", "result type": "Emax", "unit of measurement": "%", "data value": 9}
{"compound": "Cc1ccc(C2=CCC(C)(C)c3ccc(N=Nc4ccc(C(=O)O)cc4)cc32)cc1 [Compound 46b]", "result type": "Emax", "unit of measurement": "%", "data value": 4}

----------
target under test: UniProtKB P10826
assay comment: [3H]-ATRA displacement assay, baculovirus expressed receptor
Format: binding
Parameters: made in house; host or cells: baculovirus expression system
conditions: Table 11
result type: Kd

{"smi": "Cc1ccc(C2=CCC(C)(C)c3ccc(C#Cc4ccc(C(=O)O)cc4)cc32)cc1", "result type": "Kd", "data value": "2 nM"}

----------
target under test: RARγ (Homo sapiens, UniProt P13631)
Sequence (P13631 whole entry): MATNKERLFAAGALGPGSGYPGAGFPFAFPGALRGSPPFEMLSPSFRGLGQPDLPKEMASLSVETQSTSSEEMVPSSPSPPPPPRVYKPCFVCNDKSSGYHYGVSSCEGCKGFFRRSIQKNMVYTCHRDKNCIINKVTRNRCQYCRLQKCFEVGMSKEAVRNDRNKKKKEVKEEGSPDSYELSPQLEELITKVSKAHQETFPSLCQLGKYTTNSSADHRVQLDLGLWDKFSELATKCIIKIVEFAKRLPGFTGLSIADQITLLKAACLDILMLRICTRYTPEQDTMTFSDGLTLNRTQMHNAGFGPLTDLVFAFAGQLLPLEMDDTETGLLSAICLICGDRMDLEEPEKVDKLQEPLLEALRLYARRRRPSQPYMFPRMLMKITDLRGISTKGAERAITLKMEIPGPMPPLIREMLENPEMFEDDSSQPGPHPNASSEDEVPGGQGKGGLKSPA
assay comment: Ligand binding assay
Parameters: expressed in transfected cells; host or cells: CV1 cells
conditions: read-out: Kd (nanomolar) RARγ
Classification by Kd | ranges: bottom bin: < 30 nM; middle bin: ≥ 30 nM and < 100 nM; top bin: ≥ 100 nM

{"compound": "CC1(C)CC=C(c2ccccc2)c2ccc(C(=O)C=Cc3ccc(C(=O)O)cc3)cc21", "target under test": "RARγ (Homo sapiens, UniProt P13631)", "assigned class": "top bin"}
{"compound": "Cc1ccc(C2=CCC(C)(C)c3ccc(C(=O)Oc4ccc(C(=O)O)cc4)cc32)cc1", "target under test": "RARγ (Homo sapiens, UniProt P13631)", "assigned class": "top bin"}
{"compound": "Cc1ccc(C2=CCC(C)(C)c3ccc(C#Cc4ccc(C(=O)O)cc4)cc32)cn1", "target under test": "RARγ (Homo sapiens, UniProt P13631)", "assigned class": "bottom bin"}
{"compound": "Cc1ccc(C2=CCC(C)(C)c3ccc(C(=O)Nc4ccc(C(=O)O)c(F)c4)cc32)cc1", "target under test": "RARγ (Homo sapiens, UniProt P13631)", "assigned class": "top bin"}
{"compound": "Cc1cc(C)cc(C2=CCC(C)(C)c3ccc(C#Cc4ccc(C(=O)O)cc4)cc32)c1", "target under test": "RARγ (Homo sapiens, UniProt P13631)", "assigned class": "top bin"}
{"compound": "CC1(C)CC=C(c2ccc(Cl)cc2)c2cc(C#Cc3ccc(C(=O)O)cc3)ccc21", "target under test": "RARγ (Homo sapiens, UniProt P13631)", "assigned class": "bottom bin"}
{"compound": "CC1(C)CC=C(c2cccc(O)c2)c2cc(C#Cc3ccc(C(=O)O)cc3)ccc21", "target under test": "RARγ (Homo sapiens, UniProt P13631)", "assigned class": "top bin"}
{"compound": "CCc1ccc(C2=CCC(C)(C)c3ccc(C#Cc4ccc(C(=O)O)cc4)cc32)cc1", "target under test": "RARγ (Homo sapiens, UniProt P13631)", "assigned class": "bottom bin"}
{"compound": "Cc1ccccc1C1=CCC(C)(C)c2ccc(C#Cc3ccc(C(=O)O)cc3)cc21", "target under test": "RARγ (Homo sapiens, UniProt P13631)", "assigned class": "bottom bin"}
{"compound": "CC1(C)CC=C(c2ccc(O)cc2)c2cc(C#Cc3ccc(C(=O)O)cc3)ccc21", "target under test": "RARγ (Homo sapiens, UniProt P13631)", "assigned class": "middle bin"}
{"compound": "CC(C)(C)c1ccc(C2=CCC(C)(C)c3ccc(C#Cc4ccc(C(=O)O)cc4)cc32)cc1", "target under test": "RARγ (Homo sapiens, UniProt P13631)", "assigned class": "bottom bin"}
{"compound": "CC1(C)CC=C(c2cccnc2)c2cc(C#Cc3ccc(C(=O)O)cc3)ccc21", "target under test": "RARγ (Homo sapiens, UniProt P13631)", "assigned class": "middle bin"}
{"compound": "Cc1nc(C2=CCC(C)(C)c3ccc(C#Cc4ccc(C(=O)O)cc4)cc32)sc1C", "target under test": "RARγ (Homo sapiens, UniProt P13631)", "assigned class": "top bin"}
{"compound": "Cc1ccc(C2=CCC(C)(C)c3ccc(C#Cc4ccc(C(=O)O)cc4)cc32)s1", "target under test": "RARγ (Homo sapiens, UniProt P13631)", "assigned class": "bottom bin"}
{"compound": "Cc1ccc(C2=CCC(C)(C)c3cc(C(=O)C=Cc4ccc(C(=O)O)cc4)ccc32)cc1", "target under test": "RARγ (Homo sapiens, UniProt P13631)", "assigned class": "top bin"}
{"compound": "Cc1cccc(C2=CCC(C)(C)c3ccc(C#Cc4ccc(C(=O)O)cc4)cc32)c1", "target under test": "RARγ (Homo sapiens, UniProt P13631)", "assigned class": "middle bin"}
{"compound": "Cc1cnc(C2=CCC(C)(C)c3ccc(C#Cc4ccc(C(=O)O)cc4)cc32)s1", "target under test": "RARγ (Homo sapiens, UniProt P13631)", "assigned class": "top bin"}
{"compound": "CC1(C)CC=C(c2ccc(C(F)(F)F)cc2)c2cc(C#Cc3ccc(C(=O)O)cc3)ccc21", "target under test": "RARγ (Homo sapiens, UniProt P13631)", "assigned class": "middle bin"}
{"compound": "Cc1ccc(C2=CCC(C)(C)c3ccc(/C=C/c4ccc(C(=O)O)cc4)cc32)cc1", "target under test": "RARγ (Homo sapiens, UniProt P13631)", "assigned class": "bottom bin"}
{"compound": "COc1ccc(C2=CCC(C)(C)c3ccc(C#Cc4ccc(C(=O)O)cc4)cc32)cc1", "target under test": "RARγ (Homo sapiens, UniProt P13631)", "assigned class": "bottom bin"}
{"compound": "CC(/C=C/C=C(\\C)c1ccc2c(c1)C(c1ccc(C)cc1)=CCC2(C)C)=C\\C(=O)O", "target under test": "RARγ (Homo sapiens, UniProt P13631)", "assigned class": "middle bin"}
{"compound": "CC1(C)CC=C(c2ccccn2)c2cc(C#Cc3ccc(C(=O)O)cc3)ccc21", "target under test": "RARγ (Homo sapiens, UniProt P13631)", "assigned class": "top bin"}
{"compound": "Cc1ccc(C2=CCC(C)(C)c3ccc(N=Nc4ccc(C(=O)O)cc4)cc32)cc1 [Compound 46b]", "target under test": "RARγ (Homo sapiens, UniProt P13631)", "assigned class": "bottom bin"}
{"compound": "Cc1ccc(C2=CCC(C)(C)c3ccc(C#Cc4ccc(C(=O)O)cc4)cc32)cc1", "target under test": "RARγ (Homo sapiens, UniProt P13631)", "assigned class": "bottom bin"}
